Ref: paper PMC10033678

Target: TbRAP1 639-761 (RRM+DB) (Trypanosoma brucei, UniProt C1JEX5 639-761)
Assay: fluorescence polarization; EMSA: 20 mM HEPES pH 7.9, 235 mM KCl, 1 mM MgCl2, 0.1 mM EDTA, 100 ng/ul BSA, 5% glycerol, 1 mM DTT, room temp 30 min; FP: 20 mM sodium phosphate pH 7.0, 50 mM
Settings: protein: recombinant; tags: none (TrxA-His6 removed by 3C for EMSA); label: 5' 6-FAM

binder	Kd
UGAUAUAUUUUAACAC (ssRNA) [6-FAM-16-VSG-UTR]	~258 µM
